Exercise: for every item that follows, state its recorded selectivity ratio.
- protocol notes: Selectivity index, ratio of cytotoxicity against human SK-MEL cells to IC50 for Cryptococcus neoformans ATCC 90113
- Type: toxicity, cell-based
- run parameters: read-out: Selectivity Index
Residues, ends and D or L forms follow the SMILES beside them.

Answered cases to consult:
>>> data_value("COC(=O)[C@H](Cc1c[nH]cn1)NC(=O)[C@H](Cc1c[nH]c2ccccc12)NC(=O)[C@@H](N)Cc1c[nH]cn1 (H-His-Trp-His-OMe)")
"> 1"
>>> data_value("CC(C)(C)c1ccc(-c2nc(C[C@H](NC(=O)[C@H](Cc3c[nH]c4ccccc34)NC(=O)[C@@H](N)Cc3c[nH]c(-c4ccc(C(C)(C)C)cc4)n3)C(=O)NCc3ccccc3)c[nH]2)cc1")
"> 3.8"
>>> data_value("COC(=O)[C@H](Cc1c[nH]c(-c2ccc(-c3ccccc3)cc2)n1)NC(=O)[C@H](Cc1c[nH]c2ccccc12)NC(=O)[C@@H](N)Cc1c[nH]c(-c2ccc(-c3ccccc3)cc2)n1")
"> 28.6"

Now for a further molecule.
Noted for COC(=O)[C@H](Cc1c[nH]c(-c2ccccc2)n1)NC(=O)[C@H](Cc1c[nH]c2ccccc12)NC(=O)[C@@H](N)Cc1c[nH]c(-c2ccccc2)n1 : its selectivity ratio reads > 2.7
